The reported measurements were obtained from ChEMBL document CHEMBL1128335.

assay.procedure: Partition coefficient (logP)
Format: physicochemical
reported.conditions: octanol/water
outcome.measure: logP

compound	number
CCCCCCCCCCN1CCCC(C(=O)N2CCC(C3CCN(C(=O)C4CCCN(CCCCCCCCCC)C4)CC3)CC2)C1 (stereo unspecified)	11.322
CCCCCCCCCCN1CCCC(C(=O)N2CC(C)N(C(=O)C3CCCN(CCCCCCCCCC)C3)C(C)C2)C1 (stereo unspecified)	10.096
CCCCCCCCCCN1CCCC(NC(=O)C2CCCN(CCCCCCCCCC)C2)C1 (stereo unspecified)	9.96
CCCCCCCCCCN1CCCC(C(=O)N2CCN(C(=O)C3CCCN(CCCCCCCCCC)C3)CC2)C1 (stereo unspecified)	9.06
CCCCCCCCCCN1CCCC(C(=O)N2CC(C)N(C(=O)C3CCCN(CCCCCCCCCC)C3)CC2C)C1 (stereo unspecified)	10.096
CCCCCCCCCCN1CCCC(C(=O)N2CCN(C(=O)C3CCCN(CCCCCCCCCC)C3)C(C)C2)C1 (stereo unspecified)	9.58

---

logP listing for selected compounds.
assay.procedure: Partition coefficient (logP)
Assay type: physicochemical
reported.conditions: octanol/water; read-out: logP

compound	logP
CCN(CC)C(=O)C1CCCN(Cc2ccccc2-c2ccccc2CN2CCCC(C(=O)N(CC)CC)C2)C1 (stereo not given)	5.43
O=C(C1CCCN(Cc2ccc(CN3CCCC(C(=O)N4CCC(Cc5ccccc5)CC4)C3)cc2)C1)N1CCC(Cc2ccccc2)CC1 (stereo not given)	8.14
CCN(CC)C(=O)C1CCCN(CCCCCCCCCCCCN2CCCC(C(=O)N(CC)CC)C2)C1 (stereo not given)	6.96
CCCN(CCC)C(=O)C1CCCN(Cc2ccc(CN3CCCC(C(=O)N(CCC)CCC)C3)cc2)C1 (stereo not given)	5.55
CCCCN(CC)C(=O)C1CCCN(Cc2ccc(CN3CCCC(C(=O)N(CC)CCCC)C3)cc2)C1 (stereo not given)	5.55
O=C(C1CCCN(Cc2ccc(CN3CCCC(C(=O)N4CCSCC4)C3)cc2)C1)N1CCSCC1 (stereo not given)	2.89
c1cc(CN2CCCCC2)ccc1CN1CCCCC1	3.57
O=C(C1CCCN(Cc2ccc(CN3CCCC(C(=O)N4CCCCC4)C3)cc2)C1)N1CCCCC1 (stereo not given)	3.79
CCCN(C)C(=O)C1CCCN(Cc2ccc(CN3CCCC(C(=O)N(C)CCC)C3)cc2)C1 (stereo not given)	3.48
O=C(NCc1ccccc1)C1CCCN(Cc2ccc(CN3CCCC(C(=O)NCc4ccccc4)C3)cc2)C1 (stereo not given)	4.18

---

assay.procedure: Partition coefficient (logP)
Type: physicochemical
reported.conditions: octanol/water; read-out: logP
Parameter logP: see the listing below.
outcome.measure: logP

compound	number
CCN(CC)C(=O)C1CCCN(CN2CC2)C1 (stereo not drawn)	2.43
CCN(CC)C(=O)C1CCCN(Cc2cccc(Cl)c2)C1 (stereo not drawn)	3.49
Br.Br.CCN(CC)C(=O)C1CC(C(=O)N(CC)CC)CN(Cc2ccc(CN3CC(C(=O)N(CC)CC)CC(C(=O)N(CC)CC)C3)cc2)C1 (stereo not drawn)	3.39
